Provenance of the data: patent US11111251B2

- ASSAY_SYSTEM: human mAChR M1 (Homo sapiens, UniProt P11229)
- Sequence (P11229 whole entry): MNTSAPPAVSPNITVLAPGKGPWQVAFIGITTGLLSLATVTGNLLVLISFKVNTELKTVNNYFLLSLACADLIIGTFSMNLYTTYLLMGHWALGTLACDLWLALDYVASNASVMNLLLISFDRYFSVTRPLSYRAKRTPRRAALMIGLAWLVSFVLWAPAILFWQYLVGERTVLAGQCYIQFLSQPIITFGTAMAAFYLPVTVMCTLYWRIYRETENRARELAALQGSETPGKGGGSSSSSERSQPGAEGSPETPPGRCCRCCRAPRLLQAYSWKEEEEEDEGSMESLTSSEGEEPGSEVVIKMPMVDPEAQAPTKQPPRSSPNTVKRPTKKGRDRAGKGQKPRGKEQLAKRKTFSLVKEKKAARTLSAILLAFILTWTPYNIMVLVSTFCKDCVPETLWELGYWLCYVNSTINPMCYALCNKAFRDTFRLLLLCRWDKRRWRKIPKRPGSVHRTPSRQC
- ASSAY_DETAILS: mAChR M1 cell-based functional assay: calcium mobilization, positive allosteric modulator mode (increase in EC20 acetylcholine response)
- MEASUREMENT_PARAMETERS: Table 2; human M1; read-out: Human M1 EC50
pEC50: −log10 of the molar value.
VALUE_TYPE: pEC50

O=C(NC1CN(C2COC2)C1)c1cc(Cc2ccc(-n3cccn3)cc2)c2sccc2n1    5.75
Cc1csc2c(Cc3ccc(-n4cccn4)cc3)cc(C(=O)N[C@@H]3CCC[C@H]3O)nc12    6.25
Cn1ccc(-c2ccc(Cc3cc(C(=O)NC4CN(C5COC5)C4)nc4ccsc34)cn2)n1    5.29
Cc1ccc(Cc2cc(C(=O)Nc3n[nH]c4ccccc34)nc3ccsc23)cn1    5.76
Cc1ccc(Cc2cc(C(=O)N[C@@H]3CCOC[C@H]3O)nc3c(C)csc23)cn1    6.79
Cc1nc(-c2ccc(Cc3cc(C(=O)NC4CCCCC4)nc4ccsc34)cc2)co1    5.30
O=C(N[C@H]1CCC[C@@H]1O)c1cc(Cc2ccc(-c3nccs3)cc2)c2sccc2n1    6.69
Cn1ccc(-c2ccc(Cc3cc(C(=O)N[C@H]4CCOC4)nc4ccsc34)cn2)n1    5.33
